# Target Or System: T1, EcoNrdR (Escherichia coli, UniProt P0A8D0 1-149)
# T1 sequence: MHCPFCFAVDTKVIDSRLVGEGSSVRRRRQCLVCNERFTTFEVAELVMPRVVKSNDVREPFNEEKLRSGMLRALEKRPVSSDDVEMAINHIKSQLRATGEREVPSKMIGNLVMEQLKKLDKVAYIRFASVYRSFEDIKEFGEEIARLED
# Protocol Summary: MST; dATP + ATP; MST, temperature not stated. Lmo: 25 mM Bis-Tris propane pH 6.5, 100 mM KCl, 5 mM MgCl2, 5% glycerol, 1 mM DTT, 0.05% Tween 20, one nucleotide 1 mM or two at 0.5 mM each; Spn: 25 mM HEPES pH 7.2, 250 mM NaCl, 2.5 mM MgCl2, 15% glycerol, 2 mM DTT, 0.1 mg/mL BSA, 0.05% Tween 20, 0.5 mM ATP and/or dATP; Eco: 25 mM Tris pH 8.5, 100 mM NaCl, 7 mM MgCl2, 1 mM DTT, 0.025% Tween 20, 1 mM ATP + 1 mM dATP; …
# Condition Details: protein: recombinant; chain copies: 4; label: 5'-Cy5 sense; blunt
Readout: pKd
Answers are plain numbers, as −log10 of the molar value.

{"Binder": "Synt 20 bp spacer (dsDNA) DNA 1: GCCAAACACAACATCTAGTGGTTGGATAGCGTGACAGTAGCACACAACATCTAGTGGACCTC DNA 2: GAGGTCCACTAGATGTTGTGTGCTACTGTCACGCTATCCAACCACTAGATGTTGTGTTTGGC", "pKd": 5.48}

Shifting focus to the binder that follows.
Q. // returns reported pKd for input Synt 12 bp spacer (dsDNA) DNA 1: GCCAAACACAACATCTAGTGGTTGGATAGGAGCACACAACATCTAGTGGACCTC DNA 2: GAGGTCCACTAGATGTTGTGTGCTCCTATCCAACCACTAGATGTTGTGTTTGGC
A. 5.86
